Answer each item with its documented protein stability index.
assay: protein stability index of a GFP-peptide fusion (yeast GPS) (PSI 1-4); higher = more stable; sorted into four equal gates, so the index is relative within each strain; conditions: doa10∆
I only need the number, thanks.

Entry TYGVPGSENKRGSLDSE [NUT1] — recorded protein stability index = 3.31

Entry IRITSLQGDLTFTKKCL [SIR4] — recorded protein stability index = 2.87

Entry FKERQMMVSYPKIDEDD [AAR2] — recorded protein stability index = 3.28

Entry TIKDLVGGKSTVQNEIL [FAS2] — recorded protein stability index = 3.03

Entry LNDMNTEISGLKNVNKR [SMC3] — recorded protein stability index = 3.26

Entry KEKIEKLSKSATESIKN [SMC1] — recorded protein stability index = 3.28

Entry TLLKNLRKKLNFKLCQA [YJR042W/NUP85] — recorded protein stability index = 2.01

Entry PSAVAGFINQKNLKPQE [YIL149C/MLP2] — recorded protein stability index = 3.16

Entry KPLGTTRAMEYLKFREL [RPB2] — recorded protein stability index = 2.49

Entry VGVENNGQYAAFVKDMQ [RPC37] — recorded protein stability index = 3.21

Entry HKKIKVAQPDSLRETNT [SIR2] — recorded protein stability index = 3.33

Entry IHGELKTYKEGINKNEE [SMC1] — recorded protein stability index = 2.94

Entry EVLQGLLQGGAKVVVTT [FAS2] — recorded protein stability index = 3.22

Entry TFRRRNPYNTRSNKIKV [RPL34A] — recorded protein stability index = 1.43

====

experiment: protein stability index of a GFP-peptide fusion (yeast GPS) (PSI 1-4); higher = more stable; sorted into four equal gates, so the index is relative within each strain; conditions: san1∆
Quantity Kind: protein stability index
I only need the number, thanks.

Entry SSQVREHVKELLKYSNE [RPL1A] — recorded protein stability index = 2.47

Entry IYFTVPNEFEIQLSTVN [RGR1] — recorded protein stability index = 1.88

Entry VEDVSQNAADLQQICRV [RPL9A] — recorded protein stability index = 2.76

Entry YKALRGMVSHKTARGKA [RPL16A] — recorded protein stability index = 2.51

Entry LRWFELKPKLYYEQFRP [SIR3] — recorded protein stability index = 2.71

Entry LYNFLHKYVLTLQLYMV [RGR1] — recorded protein stability index = 1.78

Entry KCPGCLNITTVFSHAQT [RPS27A] — recorded protein stability index = 2.9

Entry KVSPSMCGVIVKQYNKK [SIN4] — recorded protein stability index = 2.58

====

assay: protein stability index of a GFP-peptide fusion (yeast GPS) (PSI 1-4); higher = more stable; sorted into four equal gates, so the index is relative within each strain; settings: doa10∆
Quantity Kind: protein stability index
I only need the number, thanks.

Entry KPHGLAARVDIGQIIFS [RPL10] — recorded protein stability index = 2.31

Entry ESYNQNDWKLETERLIS [SIN4] — recorded protein stability index = 3.4

Entry HPSIYTQVFNILLQHKE [POP1] — recorded protein stability index = 2.25

Entry GLTSRLQRQQRKSKLNL [POP4] — recorded protein stability index = 2.65

Entry KMEKKKSSSLSLESFMK [SNM1] — recorded protein stability index = 3.06

Entry IQELRKLLKSLLLNYLE [MED7] — recorded protein stability index = 1.71

Entry NLLLSASRDKTLISWKL [ASC1] — recorded protein stability index = 2.59

Entry KYKPTPLYVMDEIDAAL [SMC4] — recorded protein stability index = 2.45

====

assay: protein stability index of a GFP-peptide fusion (yeast GPS) (PSI 1-4); higher = more stable; sorted into four equal gates, so the index is relative within each strain; settings: san1∆
Lab note: compare protein stability index against 3. Equal or greater, write yes. Smaller, write no.

Confirm if protein stability index reported for the sequence IRFRIEREVFVDVKPKS [RPC25] is 3 or above.
no

Confirm if protein stability index reported for the sequence DPEEVEQQVAEEATTEE [RPS0A] is 3 or above.
yes

Confirm if protein stability index reported for the sequence TEFEFYLLEELESYLIV [SSN8] is 3 or above.
yes

Confirm if protein stability index reported for the sequence GYKSTVKSLRQGKSKLI [RPL30] is 3 or above.
no

Confirm if protein stability index reported for the sequence ITYALSGYVRSRGESDD [RPS21B] is 3 or above.
no

Confirm if protein stability index reported for the sequence IQSQVFESLYNSNDSVF [BRR2] is 3 or above.
no

Confirm if protein stability index reported for the sequence QFTGFLLHEMTQTYMQM [GRR1] is 3 or above.
no

Confirm if protein stability index reported for the sequence SLHSNSFSLTVSKEQFL [YJL039C/NUP192] is 3 or above.
no

Confirm if protein stability index reported for the sequence PNRIKLSKEVPFSYLID [SRB5] is 3 or above.
no

Confirm if protein stability index reported for the sequence VTKITDMLLHKYYIVSS [SRB8] is 3 or above.
no

====

assay: protein stability index of a GFP-peptide fusion (yeast GPS) (PSI 1-4); higher = more stable; sorted into four equal gates, so the index is relative within each strain; conditions: doa10∆
Lab note: compare protein stability index against 3. Equal or greater, write 1.0. Smaller, write 0.0.

Confirm if protein stability index reported for the sequence RENMICKIDFQKNFMDQ [RRI2] is 3 or above.
0.0

Confirm if protein stability index reported for the sequence QLVIQQGTGKKTASLGN [ISW2] is 3 or above.
1.0

Confirm if protein stability index reported for the sequence VEGPKFTIDAKPPISDS [YLR335W/NUP2] is 3 or above.
1.0

Confirm if protein stability index reported for the sequence LKQEIDRGLSIKLNGST [SNU114] is 3 or above.
0.0

Confirm if protein stability index reported for the sequence QGLKLAKKHKLNAITLD [SMC3] is 3 or above.
0.0

====

experiment: protein stability index of a GFP-peptide fusion (yeast GPS) (PSI 1-4); higher = more stable; sorted into four equal gates, so the index is relative within each strain; conditions: san1∆
Quantity Kind: protein stability index
I only need the number, thanks.

Entry TELLNIYDSEDPQQVFD [RPN3] — recorded protein stability index = 3.15

Entry QGRDTSKLPDPERWLPL [SRP72] — recorded protein stability index = 3.31

Entry AAEFRYKYGYDMPCDVL [SCL1] — recorded protein stability index = 2.69

Entry KSTPEGTLWAHVLKTVD [SNU114] — recorded protein stability index = 2.43

Entry SEIARTYLLKNDLVKAR [RPN9] — recorded protein stability index = 3.09

Entry KEHEPCIIFMDEVDAIG [RPT4] — recorded protein stability index = 1.79

Entry VASQSPHATATEKEPVP [SNF6] — recorded protein stability index = 2.88

Entry DSILNYAKSEFDNVASV [ECM29] — recorded protein stability index = 3.04

Entry RSNDPQSSLSKVDIPLE [NUT2] — recorded protein stability index = 3.27

Entry PRVKGFKMNEIVPLHSP [SEC65] — recorded protein stability index = 3.09

Entry QTANEKHITVRLTAKRL [SRP14] — recorded protein stability index = 2.94

Entry DSYGQGSMTKTWYVGNS [SSN2] — recorded protein stability index = 3.34

Entry GVEEVEGEYELTEAVED [RPL5] — recorded protein stability index = 3.24

Entry NRYAFSQPTNSTTTSLH [SMC4] — recorded protein stability index = 2.14

Entry TVPELEIPTQIYRTTRQ [ARP9] — recorded protein stability index = 2.35

Entry TAEDSWAVISAFFREKG [RPB2] — recorded protein stability index = 2.61

Entry LPKFLTVQYVRFFWKRS [UBP6] — recorded protein stability index = 1.24

Entry QWSMVAQRLQISDYQQL [SWI1] — recorded protein stability index = 1.59

Entry RTKFVRSLVREIAGLSP [RPL36A] — recorded protein stability index = 2.85

Entry PVPSDSTRKKGGRRGRR [RPS14B] — recorded protein stability index = 3.31

Entry NQSTIYEDEELSRAEYD [LIN1] — recorded protein stability index = 3.15

Entry TSRKALEEVSLKWIDTA [RPL3] — recorded protein stability index = 1.82

Entry MLGEDEGNTVLEKGNNP [SWP82] — recorded protein stability index = 3.11

Entry KLTQKLVTAGVAAAGIT [CYT1] — recorded protein stability index = 2.56

Entry VDRSKYNIELPLPPRID [RPT1] — recorded protein stability index = 3.15

Entry GKKVLNKNQLLKRNRIR [POP1] — recorded protein stability index = 2.94

Entry QGDEALSVDDIRGAVGN [RTT102] — recorded protein stability index = 3.24

Entry TPLRDEVTDKNYYYLFD [PRP8] — recorded protein stability index = 3.03

Entry LAIADSPQKFETNLQTF [ECM29] — recorded protein stability index = 3.25

Entry HIKEASEEVDDLSMVPK [SNF2] — recorded protein stability index = 3.13

Entry YIKSMDLISKKTKTSLL [RPR2] — recorded protein stability index = 2.78

Entry IDDANVTRKQEDARRNP [RPC37] — recorded protein stability index = 2.06

Entry ILVKRYSIEMKPYSGKL [ECM29] — recorded protein stability index = 1.79

Entry EPSGIYSSWSAQTIGRN [PRE6] — recorded protein stability index = 1.06

Entry HKQIHTTIFVKSTTPYV [POP7] — recorded protein stability index = 2.15

Entry NAEATKEEFSSAENRDE [CSE2] — recorded protein stability index = 3.35

Entry NQILQTEIENYLLENNQ [YDL116W/NUP84] — recorded protein stability index = 2.19

Entry NYIINDIKKNNKIKLNI [SRB8] — recorded protein stability index = 3.04

Entry SVLISIPLDNYDDFIYL [PCI8] — recorded protein stability index = 1.28

Entry FDFLDDGTAQLSNNKTD [YJR042W/NUP85] — recorded protein stability index = 3.5

Entry TVELQVGLKNYDPQRDK [RPL1A] — recorded protein stability index = 3.12

Entry VKPLESSAKRSKNTAVS [SRP72] — recorded protein stability index = 2.21

Entry FKERQMMVSYPKIDEDD [AAR2] — recorded protein stability index = 3.19

Entry QTAVTCESCSTVLCTPT [RPS27B] — recorded protein stability index = 2.06

Entry PEILRFKVYEPLLLVGL [RPS16A] — recorded protein stability index = 2.1

Entry DVPSEDDPTQLVSRGGC [RPO21] — recorded protein stability index = 2.97

Entry VAARAEILRIHSRKMNL [RPT6] — recorded protein stability index = 2.5

Entry ENYEGKQDKTLQKVENQ [YIL149C/MLP2] — recorded protein stability index = 2.8

Entry LEQMELSILKGDYSQAT [RPN5] — recorded protein stability index = 2.94

Entry ISSEKLLTLTNAANVPV [RPP1A] — recorded protein stability index = 2.93

Entry LKSAIRDEIAKNTELSY [RPN12] — recorded protein stability index = 1.51

Entry GGLSGEESIKIYPLIKP [UBP6] — recorded protein stability index = 1.88

Entry RTAPKSDNVYLKLLVKL [RPL18A] — recorded protein stability index = 2.7

Entry LNRFNFQNTNTRSALKL [QCR2] — recorded protein stability index = 2.83

Entry LYQDMAARHRARFRSIH [RPL20A] — recorded protein stability index = 2.96

Entry ITMPATNGKPDMAILER [ARP7] — recorded protein stability index = 3.06

Entry TGSNDRCIGDSDNVSFE [YMR129W/POM152] — recorded protein stability index = 2.5

Entry SVLQLFQSVQLNINNPN [SMC2] — recorded protein stability index = 1.68

Entry NFLETIASTEKPENKTD [SIR4] — recorded protein stability index = 2.77

Entry SKEVRGSKIRVMWGKVT [RPL33A] — recorded protein stability index = 2.4
